system: milkweed bug; test: Topical application, milkweed bug; format: in vivo, Oncopeltus fasciatus; conditions: MWB, 5000 ng/insect, 24 hours
# Topical % Kill @ 5000 ng/insect per record follows
measurement_kind: Topical % Kill @ 5000 ng/insect (%)

• CC1(C)[C@H](C=C(Cl)C(F)(F)F)[C@@H]1C(=O)OCc1cccc(-c2ccco2)c1 (relative stereo) = 40
• CC1(C)[C@H](C(=O)OCc2cccc(-c3ccc(Br)o3)c2)[C@@H]1C=C(Cl)Cl (relative stereo) = 0
• Cc1c(COC(=O)[C@H]2[C@@H](C=C(Cl)C(F)(F)F)C2(C)C)cccc1-c1cccs1 (relative stereo) = 100
• CC1(C)[C@H](C=C(Cl)Cl)[C@@H]1C(=O)OCc1cccc(-c2ccco2)c1 (relative stereo) = 0
• Cc1c(COC(=O)[C@H]2[C@@H](C=C(Cl)C(F)(F)F)C2(C)C)cccc1-c1cnccn1 (relative stereo) = 100
• Cc1c(COC(=O)[C@H]2[C@@H](C=C(Cl)Cl)C2(C)C)cccc1-c1ccco1 (relative stereo) = 100
• Cc1c(COC(=O)[C@H]2[C@@H](C=C(Cl)Cl)C2(C)C)cccc1-c1cccs1 (relative stereo) = 100
• Cc1c(COC(=O)C2C(C=C(Cl)Cl)C2(C)C)cccc1-c1ccco1 (mixture of isomers) = 100
• Cc1c(COC(=O)[C@H]2[C@@H](C=C(Br)Br)C2(C)C)cccc1-c1cccs1 (relative stereo) = 100

All figures here come from patent US4426524A.
